# GI50 per entry
# Tested on: UO-31
# METHOD NOTES: NCI tumour cell line growth inhibition, 48 h
Activity calls are given as the source filed them. Rule as the data show it: active = GI50 up to about 1.1 µM and inactive = higher.

Cc1ccc(S(=O)(=O)NNC(C[N+](=O)[O-])c2ccccc2)cc1 (stereo unspecified) :: 22.3 µM (inactive)
CC1OC(n2ncc(=O)[nH]c2=O)C=CC1=O (stereo unspecified) :: > 100 µM (inactive)
Nc1nc(-c2cccc([N+](=O)[O-])c2)cc(-c2cc(-c3cccc([N+](=O)[O-])c3)nc(N)n2)n1 :: > 100 µM (inactive)
CC(=O)Oc1ccc2c(c1)CC[C@@H]1C2CC[C@]2(C)C(=O)NC(=O)CC12 (stereo partly specified) :: > 100 µM (inactive)
N#CC1=C2SCCN2C(=O)C(C#N)C12CCCCC2 (stereo unspecified) :: > 100 µM (inactive)

Continue with the next compound.
Incoming: Item under review: CC1(CCCC2(C)CCNC2=O)OCCO1 (stereo unspecified) . Reported GI50?
Outgoing: > 10 µM (inactive)

====

# Tested on: NCI-H23
# METHOD NOTES: NCI tumour cell line growth inhibition, 48 h
Active and inactive are the calls of the source. Rule as the data show it: active = GI50 up to about 1.1 µM and inactive = higher.
Write down one outcome, taken from True (active), False (inactive)

The examples below pair each entry with its known result.
O=C1N[C@@H]2C(=C[C@H](O)[C@@H](O)[C@H]2O)c2cc3c(c(O)c21)OCO3 [NARCICLASINE] :: True
CN(C)C(=N)NC(=S)N(C)C :: False

Kindly review the next compound as well.
Incoming: Can you look up the reported call for `O=[PH](O)c1cccs1` for me?
Outgoing: False

====

# Test system: IGROV-1
# METHOD NOTES: NCI tumour cell line growth inhibition, 48 h
Active and inactive are the calls of the source. Rule as the data show it: active = GI50 up to about 1.1 µM and inactive = higher.
MEASURED METRIC: GI50

Record excerpt, results attached:
CCOC(=O)[C@H]1Nc2ccc(C)cc2C2c3ccccc3CC21 (stereo not given in full) :: > 100 µM (inactive)
COC(=O)/C=C(\S/C=C(/c1ccccc1)N1CCn2c(C(=O)c3ccccc3)c(C(=O)OC)c(C(=O)OC)c21)C(=O)OC :: > 10 µM (inactive)
CC(=O)CC(=O)ON(C)C(=O)Cc1ccccc1 :: > 100 µM (inactive)

Incoming: Item under review: `COC(=O)NC(C(F)(F)F)(C(F)(F)F)P1(=O)OCCCO1` . Reported GI50?
Outgoing: 22.3 µM (inactive)

Incoming: Then `CCc1n[nH]c(=O)n1O` ?
Outgoing: > 100 µM (inactive)

====

# System: SK-OV-3
# METHOD NOTES: NCI tumour cell line growth inhibition, 48 h
The source made the active and inactive calls. No stated cut-off is given here; in the data, active = GI50 up to about 1.1 µM and inactive = higher.
Write down one outcome, taken from t (active), f (inactive)

Oc1ccc2ccccc2c1CCc1c(O)ccc2ccccc12 :: f
Oc1ccc(/C=N/c2nccs2)c(O)c1 :: f
COc1ccc2c(c1)NC1(CCN(CCCC(=O)c3ccc(F)cc3)CC1)N=N2 :: f

Incoming: Can you look up the reported call for Cc1ccc(S(=O)(=O)C2=C([Si](C)(C)C)C3CC2[C@@H]2C4C=CC(CC4)[C@H]32)cc1 (stereo partly specified) for me?
Outgoing: f

Incoming: Then `Cc1cc(C)nc(NS(=O)(=O)c2ccc(NC(=O)COC(=O)c3cccc4c(=O)c5ccccc5[nH]c34)cc2)n1` ?
Outgoing: f

Incoming: Then `C=CC1(c2ccc(Br)cc2)OCCCO1` ?
Outgoing: f

Incoming: Then COC(=O)C(=O)C(C(=O)C=C(C)C)C(=O)C(=O)Nc1cccc(C(C)=O)c1 (stereo unspecified) ?
Outgoing: f

====

# Tested on: DU-145
# METHOD NOTES: NCI tumour cell line growth inhibition, 48 h
The source made the active and inactive calls. Rule as the data show it: active = GI50 up to about 1.1 µM and inactive = higher.
Write down one outcome, taken from Yes for active, No for inactive

CCOC(=O)C1OC(C2(C)OC3(OC4(C=CC3O)OC(C(C)C(=O)C(C)C(O)C(C)CC(C)c3c(Cl)cc(C)c(O)c3C(=O)O)C(C)CC4C)C(C)C2OC)CC1O (stereo not drawn) :: Yes

Incoming: Can you look up the reported call for `CC(C)C[C@H](NC(=O)[C@H](Cc1ccc(F)cc1)NC(=O)c1ccccn1)B(O)O` for me?
Outgoing: Yes

====

# System: SK-MEL-5
# METHOD NOTES: NCI tumour cell line growth inhibition, 48 h
The source made the active and inactive calls. No stated cut-off is given here; in the data, active = GI50 up to about 1.1 µM and inactive = higher.
MEASURED METRIC: GI50

Record excerpt, results attached:
Cc1ccc(S(=O)(=O)N2c3ccccc3[C@H]3CCC=C[C@H]32)cc1 :: 7.4 µM (inactive)
CCCCCCc1ccc(O)cc1O :: 31.8 µM (inactive)
COc1ccc(Nc2cc(O)nc(O)n2)cc1 :: > 100 µM (inactive)
O=C1C(=C(C(F)(F)Cl)C(F)(F)Cl)C2CCC1C2 (stereo unspecified) :: 1.67 µM (inactive)
Nc1nc(-c2ccccc2)nc2oc(-c3cccs3)nc12 :: > 100 µM (inactive)

Continue with the next molecule.
Incoming: Item under review: `COc1cc(Oc2nc3cc(F)c(F)cc3nc2-c2ccccc2)cc(OC)c1OC` . Reported GI50?
Outgoing: 28.1 µM (inactive)

====

# System: COLO 205
# METHOD NOTES: NCI tumour cell line growth inhibition, 48 h
Calls of active or inactive are those of the source. No stated cut-off is given here; in the data, active = GI50 up to about 1.1 µM and inactive = higher.
MEASURED METRIC: GI50

Record excerpt, results attached:
O=C(/C=C/c1ccsc1)c1ccc(Cl)s1 :: > 100 µM (inactive)
COc1cc(C2(O)c3ccccc3C3=NCCN32)cc(OC)c1OC (stereo not given) :: > 100 µM (inactive)
CC(C)C[C@H](NC(=O)[C@H](Cc1ccc(F)cc1)NC(=O)c1ccccn1)B(O)O :: < 0.01 µM (active)

Incoming: Item under review: NC(=O)c1ncn(C2C=CC(CP(=O)(O)O)C2)c1N (stereo not given) . Reported GI50?
Outgoing: > 100 µM (inactive)

Incoming: Then CC1(C)CCCC(C)(C2CCC3(C)C2C(O)CC2C4(C)CCC(O)C(C)(C)C4CCC23C)O1 (stereo not given) ?
Outgoing: 80.2 µM (inactive)

====

# GI50 per entry
# System: SF-268
# METHOD NOTES: NCI tumour cell line growth inhibition, 48 h
Active and inactive are the calls of the source. Cut-off read from the data, not from the text of the source: active = GI50 up to about 1.1 µM and inactive = higher.

COc1ccccc1/C=C1\Sc2scc(-c3ccc(O)c(O)c3)[n+]2C1=O :: 58.9 µM (inactive)
C=CCN1C[C@H](C)N([C@H](c2ccc(C(=O)N(CC)CC)cc2)c2cccc(OC)c2)C[C@H]1C :: 86.5 µM (inactive)
NC1=NS(=O)(=O)Nc2nc(-c3ccccc3)c(-c3ccccc3)nc21 :: > 100 µM (inactive)
CC1(CCCC2(C)CCNC2=O)OCCO1 (stereo not given) :: > 10 µM (inactive)

Incoming: Item under review: `Cc1c(/C=N/NS(=O)(=O)c2ccccc2)no[n+]1[O-]` . Reported GI50?
Outgoing: > 100 µM (inactive)

====

# System: A549
# METHOD NOTES: NCI tumour cell line growth inhibition, 48 h
Calls of active or inactive are those of the source. Rule as the data show it: active = GI50 up to about 1.1 µM and inactive = higher.
# GI50 per entry

Record excerpt, results attached:
Nc1nc2c(ncn2C2CCC(CO)O2)c(=O)n1C(=O)c1ccccc1 (stereo not given) :: > 100 µM (inactive)
COC(=O)C(=O)Cc1nc2ccccc2s1 :: > 100 µM (inactive)
CCOC(=O)CN.CCOC(=O)Nc1ccc(S(=O)(=O)OC)cc1.CCOC(=O)Nc1ccc(S(=O)(=O)OC)cc1 :: > 50 µM (inactive)
NS(=O)(=O)c1ccc(NNc2c3ccccc3nc3ccccc23)cc1 :: 15.3 µM (inactive)

Incoming: Item under review: CC1C(=O)OC2CC[N+]3([O-])CC=C(COC(=O)C(C)(O)C1(C)O)C23 (stereo not given) . Reported GI50?
Outgoing: > 100 µM (inactive)

====

# GI50 per entry
# Test system: KM12
# METHOD NOTES: NCI tumour cell line growth inhibition, 48 h
Active and inactive are the calls of the source. No stated cut-off is given here; in the data, active = GI50 up to about 1.1 µM and inactive = higher.

CS(=O)(=O)OCCN1CCC2(CC1)SSC1(CCN(CCOS(C)(=O)=O)CC1)S2 :: > 100 µM (inactive)
FC(F)(F)c1cc(C2SCc3nc4ccccc4n32)cc(C(F)(F)F)c1 (stereo unspecified) :: 4.68 µM (inactive)
CCNc1nnc(CSc2nc(-c3ccccc3)c(-c3ccccc3)[nH]2)s1 :: 9.38 µM (inactive)
CC1(CCCC2(C)CCNC2=O)OCCO1 (stereo unspecified) :: > 10 µM (inactive)
Cc1ccc2c(c1)CC1(C2=O)[C@H](c2ccccc2)C2C(=O)c3ccc(C)cc3C2[C@H]1c1ccccc1 (stereo partly specified) :: > 100 µM (inactive)

Continue with the next compound.
Incoming: Record lookup: for KM12, what GI50 belongs to COC(=O)/C=C(\C)CC(O)/C=C(\C)CCC=C(C)C (stereo unspecified) ?
Outgoing: 40.4 µM (inactive)

====

# Tested on: SK-MEL-28
# METHOD NOTES: NCI tumour cell line growth inhibition, 48 h
Activity calls are given as the source filed them. No stated cut-off is given here; in the data, active = GI50 up to about 1.1 µM and inactive = higher.
Write down one outcome, taken from active, inactive

N[C@H]1c2c(Br)sc(Br)c2C(=O)[C@H]1O :: inactive
N#Cc1c2nc3ccccc3nc2n2ccccc12 :: inactive
Nc1ccc(-c2cc(C(=O)Nc3nccs3)nc(S)n2)cc1 :: inactive
CC12OC3CC(O1)C1(C=O)C4CCC5(C)C(c6ccc(=O)oc6)CCC5(O)C4CCC1(C3)O2 (stereo unspecified) :: active
O=C1C2CC=CCC2C(=O)N1n1c(Cc2ccc(Cl)cc2)n[nH]c1=O (stereo unspecified) :: inactive
O=c1[nH]c(=O)n(C2OC(CO)C(O)C2O)cc1OCCCc1ccccc1 (stereo unspecified) :: inactive
COc1cccc(/C=C2\C(=O)N(C(=O)c3ccc(NC(C)=O)cc3)N=C2C)c1 :: inactive
C/C(CC(=O)Nc1cccc([N+](=O)[O-])c1)=N\NC(=O)CC#N :: inactive

Incoming: Can you look up the reported call for `O=C1CNC(=O)N1` for me?
Outgoing: inactive

Incoming: Then `O=C1C=CC(S(=O)(=O)C2=C/C(=C/Nc3ccc(Cl)cc3)C(=O)C=C2)=C/C1=C/Nc1ccc(Cl)cc1` ?
Outgoing: inactive

Incoming: Then CN1C(=O)N(C)C(N2CCCC2)c2c1nc1ccccn1c2=O (stereo unspecified) ?
Outgoing: inactive

Numbers sourced from ChEMBL document CHEMBL1201862.
